Assay text: in vitro
Test conditions: human
Measurement type: IC50 at 8 days (µM)
Entry rule: numbers only, all in µM.

Report IC50 at 8 days for CN1N=C(N)c2cn([C@@H]3O[C@H](COP(=O)(O)O)[C@@H](O)[C@H]3O)c3ncnc1c23
32
